B1: SPATS1 (parent)
chain: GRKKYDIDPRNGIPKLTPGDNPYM

- Variants of: B1
- assayExplanation: protein stability index of a GFP-peptide fusion (GPS, HEK-293T) (PSI 1-6); higher = more stable;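 further: lentivirally expressed fusions sorted by FACS into six bins by GFP to DsRed ratio, PSI derived from sequencing read proportions per bin multiplied by bin number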
- condition: c terminus: a fixed tail appended
experimentalReadout: protein stability index
I'd appreciate a reply containing only the number, no unit.

[
  {
    "variantDesignation": "D8I",
    "recordedMeasurement": 3.08
  },
  {
    "variantDesignation": "R2N",
    "recordedMeasurement": 3.44
  },
  {
    "variantDesignation": "Y23N",
    "recordedMeasurement": 4.43
  },
  {
    "variantDesignation": "T17Y",
    "recordedMeasurement": 2.89
  }
]

So for M24R , the logged protein stability index turned out to be 3.59

So for Y23F , the logged protein stability index turned out to be 3.37

So for D8V , the logged protein stability index turned out to be 3.08

So for G19E , the logged protein stability index turned out to be 4.69

So for G12K , the logged protein stability index turned out to be 3.58

So for N11D , the logged protein stability index turned out to be 3.87

So for M24E , the logged protein stability index turned out to be 4.56

So for D6Y , the logged protein stability index turned out to be 3.12

So for R10P , the logged protein stability index turned out to be 3.29

So for K15A , the logged protein stability index turned out to be 3.64

So for G12F , the logged protein stability index turned out to be 3.34

So for I13F , the logged protein stability index turned out to be 3.99

So for Y23K , the logged protein stability index turned out to be 4.41

So for R2F , the logged protein stability index turned out to be 3.4
